- systemName: HDM2 protein (Homo sapiens, UniProt Q00987)
- Sequence (Q00987 whole entry): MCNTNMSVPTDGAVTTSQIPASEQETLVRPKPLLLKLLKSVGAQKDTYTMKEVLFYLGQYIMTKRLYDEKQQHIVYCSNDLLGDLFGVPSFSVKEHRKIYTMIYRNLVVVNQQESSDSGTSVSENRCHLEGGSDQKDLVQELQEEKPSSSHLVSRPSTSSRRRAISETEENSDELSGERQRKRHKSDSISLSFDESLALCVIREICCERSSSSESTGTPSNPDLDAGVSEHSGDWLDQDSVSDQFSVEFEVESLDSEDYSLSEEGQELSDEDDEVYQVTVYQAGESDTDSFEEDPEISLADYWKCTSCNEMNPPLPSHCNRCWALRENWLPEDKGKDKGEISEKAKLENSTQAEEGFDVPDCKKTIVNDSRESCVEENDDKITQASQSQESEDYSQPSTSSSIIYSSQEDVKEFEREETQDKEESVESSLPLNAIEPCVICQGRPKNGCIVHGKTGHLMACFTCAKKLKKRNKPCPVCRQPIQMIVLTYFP
endpointLabel: IC50 (nM)

1. COc1ccccc1N1CCN(C(=O)C2(Oc3ccc(C(F)(F)F)cc3)CCCN(C(=O)c3cnccc3C(F)(F)F)C2)C(C(=O)NCCO)C1 (stereo not shown) [CR]; 950
